# TEST SUMMARY: Phase I study CXR1002-001: plasma pharmacokinetics (LC-MS/MS)
# Assay type: in vivo, human
# CONDITION DETAILS: human, plasma, oral, 600 mg, Patient 020, 600 mg, person, plasma, 338 hr; read-out: Concentration
REPORTED PROPERTY: concentration at 338 h (µM)
Give bare numbers, in µM.

Inquiry: concentration at 338 h lookup needed for O=C(O)C(F)(F)C(F)(F)C(F)(F)C(F)(F)C(F)(F)C(F)(F)C(F)(F)F [CXR1002] , thanks.
Reply text: 474

* * *

# TEST SUMMARY: Phase I study CXR1002-001: plasma pharmacokinetics (LC-MS/MS)
# Type: in vivo, human
# CONDITION DETAILS: human, plasma, oral, 300 mg, Patient 011 Dose 300 mg; 676 hr; read-out: Concentration
REPORTED PROPERTY: concentration at 676 h (µM)
Numbers only, in µM.

Inquiry: concentration at 676 h lookup needed for `O=C(O)C(F)(F)C(F)(F)C(F)(F)C(F)(F)C(F)(F)C(F)(F)C(F)(F)F` , thanks.
Reply text: 243

* * *

# TEST SUMMARY: Phase I study CXR1002-001: plasma pharmacokinetics (LC-MS/MS)
# Type: in vivo, human
# CONDITION DETAILS: human, plasma, oral, 50 mg, Patient 003 Dose 50 mg; 864 hr (Day 36); read-out: Concentration
# From the text: PK samples, PD (fasting) samples, blood glucose, and blood triglyceride samples, were taken over a 6-week period. Dose limiting toxicity (DLT) will be based on the toxicity assessments over the first 3-week period of the repeat dosing schedule. […]
REPORTED PROPERTY: concentration at 864 h (µM)
One number for each entry, in µM.

Inquiry: concentration at 864 h lookup needed for `O=C(O)C(F)(F)C(F)(F)C(F)(F)C(F)(F)C(F)(F)C(F)(F)C(F)(F)F` , thanks.
Reply text: 6.5

* * *

# TEST SUMMARY: Phase I study CXR1002-001: plasma pharmacokinetics (LC-MS/MS)
# Assay type: in vivo, human
# CONDITION DETAILS: human, plasma, oral, 950 mg, Patient 029, 950 mg, person, plasma, 840 hr (Day 36); read-out: Concentration
REPORTED PROPERTY: concentration at 840 h (µM)
Numbers only, in µM.

Inquiry: concentration at 840 h lookup needed for `O=C(O)C(F)(F)C(F)(F)C(F)(F)C(F)(F)C(F)(F)C(F)(F)C(F)(F)F` , thanks.
Reply text: 777

* * *

# TEST SUMMARY: Phase I study CXR1002-001: plasma pharmacokinetics (LC-MS/MS)
# Type: in vivo, human
# CONDITION DETAILS: human, plasma, oral, 1200 mg, Patient 033, 1200 mg, person, plasma, 24 hr (Day 2); read-out: Concentration
# Text: PK samples, PD (fasting) samples, blood glucose, and blood triglyceride samples, were taken over a 6-week period. Dose limiting toxicity (DLT) will be based on the toxicity assessments over the first 3-week period of the repeat dosing schedule. […]
REPORTED PROPERTY: concentration at 24 h
Kindly format the answer as number then unit.

Inquiry: concentration at 24 h lookup needed for `O=C(O)C(F)(F)C(F)(F)C(F)(F)C(F)(F)C(F)(F)C(F)(F)C(F)(F)F` , thanks.
Reply text: 371 µM
